- System: Plasmodium falciparum
- assay_text: Plasmodium falciparum sporozoite viability assay; also: in the data most compounds retested in dose-response had high values
- Assay type: functional, organism-based
About 290 (0.85%) of roughly 34,000 compounds showed an effect of 50% or more. This excerpt belongs to a sample that is enriched for strong results.
endpoint: Percent Effect
Output should be the measured figure followed by the unit it is expressed in.

Solved entries (count: 5):
{"compound": "CCOc1ccc(-c2cc(=O)n3c(n2)CCCCC3)cc1", "Percent Effect": "-4.121%"}
{"compound": "COc1cccc(-n2c(C)cc(C(=O)NC(C)(C)C(N)=O)c2C)c1", "Percent Effect": "5.357%"}
{"compound": "Cl.Cn1ncc2c1CCCC2NCc1cccc(C(F)(F)F)c1 (stereo unspecified)", "Percent Effect": "-3.477%"}
{"compound": "O=C(O)c1ccc(=O)n(CC(c2ccc(Cl)cc2)N2CCOCC2)c1 (stereo unspecified)", "Percent Effect": "5.86%"}
{"compound": "O=C(NCc1nn(-c2ccccc2)c2c1CCC2)NCC1COCCO1 (stereo unspecified)", "Percent Effect": "13.65%"}

Problem: What does the data say about its Percent Effect? Entry: CCCNC(=O)c1cc(C2CCCN(Cc3ccccn3)C2)no1 (stereo unspecified)
Result: 2.586%
